target: Apoptotic protease-activating factor 1 (Homo sapiens) (UniProt O14727); assay: blockers of Apaf-1-driven caspase-3 activation – biochemical, DEVD-Rh110 fluorescence, uHTS, primary screen (AID 489030); conditions: reconstituted apoptosome caspase-3 activity, at 20 µM
Sequence (O14727 whole entry, looked up): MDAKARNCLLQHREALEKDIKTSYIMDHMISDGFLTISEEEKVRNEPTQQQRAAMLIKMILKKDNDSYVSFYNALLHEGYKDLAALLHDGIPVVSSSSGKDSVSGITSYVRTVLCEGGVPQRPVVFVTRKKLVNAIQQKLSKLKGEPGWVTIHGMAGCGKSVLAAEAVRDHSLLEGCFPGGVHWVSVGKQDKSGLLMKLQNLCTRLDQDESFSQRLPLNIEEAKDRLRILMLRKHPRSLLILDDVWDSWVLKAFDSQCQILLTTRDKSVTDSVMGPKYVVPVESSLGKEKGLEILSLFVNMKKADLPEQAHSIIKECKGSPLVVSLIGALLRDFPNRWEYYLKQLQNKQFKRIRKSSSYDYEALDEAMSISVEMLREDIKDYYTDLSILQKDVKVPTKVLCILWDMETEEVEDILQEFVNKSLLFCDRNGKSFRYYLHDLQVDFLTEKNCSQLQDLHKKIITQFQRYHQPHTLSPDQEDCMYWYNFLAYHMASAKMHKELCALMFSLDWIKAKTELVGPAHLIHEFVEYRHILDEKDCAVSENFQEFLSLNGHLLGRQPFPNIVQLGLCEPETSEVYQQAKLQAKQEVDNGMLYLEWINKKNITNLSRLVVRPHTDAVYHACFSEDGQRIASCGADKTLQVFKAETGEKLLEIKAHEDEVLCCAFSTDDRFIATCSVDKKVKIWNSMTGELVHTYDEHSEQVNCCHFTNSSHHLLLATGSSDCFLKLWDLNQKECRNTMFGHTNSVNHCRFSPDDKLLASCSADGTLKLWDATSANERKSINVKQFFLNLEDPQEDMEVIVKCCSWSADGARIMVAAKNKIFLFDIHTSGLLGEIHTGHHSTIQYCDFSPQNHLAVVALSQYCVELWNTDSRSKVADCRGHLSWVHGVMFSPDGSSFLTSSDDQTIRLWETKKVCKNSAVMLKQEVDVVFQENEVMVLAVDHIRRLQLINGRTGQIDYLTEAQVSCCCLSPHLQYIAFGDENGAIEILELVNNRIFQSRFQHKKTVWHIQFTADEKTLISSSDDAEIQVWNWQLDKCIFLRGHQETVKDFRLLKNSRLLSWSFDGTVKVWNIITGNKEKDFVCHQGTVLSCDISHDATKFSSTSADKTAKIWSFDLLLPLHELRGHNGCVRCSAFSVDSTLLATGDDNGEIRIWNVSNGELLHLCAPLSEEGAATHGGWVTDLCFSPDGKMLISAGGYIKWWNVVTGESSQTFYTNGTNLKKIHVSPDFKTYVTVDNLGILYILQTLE
In all, about 330,000 compounds went through this assay and about 2,400 (0.73%) were called active. Rule for the calls: active = inhibition of at least 40% at 20 µM; inactive = the rest. This is one part of a sample in which actives are shown more often than they occur.
Outcome (select one): Y (active), N (inactive)

>>> class_label("CCOc1ccc(N=C2NC(=O)S/C2=C\\c2ccc(O)cc2)cc1")
"N"
>>> class_label("CC(=O)c1ccc(NC(=O)CSc2nc3ccccc3c(=O)n2CCCN2CCOCC2)cc1")
"N"
>>> class_label("Cc1ccc2c(c1)C1CN(C)CCC1N2S(=O)(=O)c1ccc(Oc2ccc([N+](=O)[O-])cc2)cc1 (configuration not stated)")
"Y"

Field: outcome | Entry: CC(C)Cn1c(N)c(C(=O)NCc2cccs2)c2nc3ccccc3nc21
Y

# iterate: CCCCOc1ccc(NC(=O)CSCC(=O)OCC)cc1
N

# iterate: Cc1c(CCC(=O)O)c(=O)oc2cc3occ(-c4ccccc4)c3cc12
N
